experiment: Oral bioavailability in Sprague-Dawley rat at 10 mg/kg; type: ADME, organism-based; conditions: in vivo
Measure: bioavailability (%)

a: Cl.Cn1cc(-c2cc(C(=O)N[C@@H]3CCc4ccc(Oc5ccnc6c5CCC(=O)N6)cc4C3)cc(C(F)(F)F)c2)cn1
b: CN(C)Cc1cc(C(=O)N[C@@H]2CCc3ccc(Oc4ccnc5c4CCC(=O)N5)cc3C2)cc(C(F)(F)F)c1.Cl.Cl
q: Given a and b , report the one with the higher recorded bioavailability. Refer to your chosen entry by its label in the reply.
a: b
(b: 100%, a: 54%)

###

assay: Volume of distribution at steady state in Sprague-Dawley rat at 1 mg/kg, iv; type: ADME, organism-based; settings: in vivo, read-out: Vdss
Measure: Vd (L/kg)

1: Cl.Cn1cc(-c2cc(C(=O)N[C@@H]3CCc4ccc(Oc5ccnc6c5CCC(=O)N6)cc4C3)cc(C(F)(F)F)c2)cn1
2: CN(C)Cc1cc(C(=O)N[C@@H]2CCc3ccc(Oc4ccnc5c4CCC(=O)N5)cc3C2)cc(C(F)(F)F)c1.Cl.Cl
q: Compare reported Vd values for 1 and 2 . Which is lower? Answer format: the label of the selected item.
a: 1
(1: 0.41 L/kg, 2: 0.75 L/kg)

###

assay: AUC in Sprague-Dawley rat at 10 mg/kg, po; format: ADME, organism-based; conditions: in vivo
Measure: AUC (µM·h)

The compound listed as `CN(C)Cc1cc(C(=O)N[C@@H]2CCc3ccc(Oc4ccnc5c4CCC(=O)N5)cc3C2)cc(C(F)(F)F)c1.Cl.Cl` shows AUC equal to 98.6

Documented AUC of `Cl.Cn1cc(-c2cc(C(=O)N[C@@H]3CCc4ccc(Oc5ccnc6c5CCC(=O)N6)cc4C3)cc(C(F)(F)F)c2)cn1` : 126
